- System Tested: Gonadotropin-releasing hormone receptor (Homo sapiens, UniProt P30968)
- Sequence (P30968 whole entry): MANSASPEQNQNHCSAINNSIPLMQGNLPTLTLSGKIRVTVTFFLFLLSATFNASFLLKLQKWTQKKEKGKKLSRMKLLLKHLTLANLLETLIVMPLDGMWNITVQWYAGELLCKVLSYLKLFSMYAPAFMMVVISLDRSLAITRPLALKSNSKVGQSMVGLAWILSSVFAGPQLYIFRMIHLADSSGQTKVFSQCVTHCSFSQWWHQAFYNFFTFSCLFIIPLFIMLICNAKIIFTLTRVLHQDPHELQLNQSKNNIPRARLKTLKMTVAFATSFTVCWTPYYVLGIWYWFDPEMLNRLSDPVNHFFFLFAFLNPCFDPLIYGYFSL
- Assay Name: Antagonism of human GnHR receptor, determined in a reporter gene assay in HEK293 cells
- Format: functional, cell-based
*1 amine or outer side, *2 acyl side, *3 side chain or, on linkers, in order; H or OH if unused. Where a SMILES comes first, the peptide text is derived from it. [ ]: non-standard residue; d: D form. Phe(4-NH(5-NH2triazol-3-yl)) = Nc1nc(Nc2ccc(C[C@H](N)C(=O)O)cc2)n[nH]1; X1 = Nc1nc(Nc2ccc(C[C@@H](N[*:1])C(=O)[*:2])cc2)n[nH]1; dPhe(4-Cl) = N[C@H](Cc1ccc(Cl)cc1)C(=O)O; d2Nal = N[C@H](Cc1ccc2ccccc2c1)C(=O)O; Lys(iPr) = CC(C)NCCCC[C@H](N)C(=O)O; d3Pal = N[C@H](Cc1cccnc1)C(=O)O
Lab note - cut at 8 nM for IC50: 1 (yes) if strictly below, 0 (no) if not.

- Compound: "CC(=O)Nc1ccc(C[C@@H](NC(=O)[C@H](Cc2ccc(NC(=O)C(NC(N)=O)NC(N)=O)cc2)NC(=O)[C@H](CO)NC(=O)[C@@H](Cc2cccnc2)NC(=O)[C@@H](Cc2ccc(Cl)cc2)NC(=O)[C@@H](Cc2ccc3ccccc3c2)NC(C)=O)C(=O)N[C@@H](CC(C)C)C(=O)N[C@@H](CCCCNC(C)C)C(=O)N2CCC[C@H]2C(=O)N[C@H](C)C(N)=O)cc1"
  System Tested: "Gonadotropin-releasing hormone receptor (Homo sapiens, UniProt P30968)"
  Category Label: "0 (no)"
- Compound: "CC(=O)Nc1ccc(C[C@@H](NC(=O)[C@H](Cc2ccc(NC(=O)[C@H]3CNC(=O)N3)cc2)NC(=O)[C@H](CO)NC(=O)[C@@H](Cc2cccnc2)NC(=O)[C@@H](Cc2ccc(Cl)cc2)NC(=O)[C@@H](Cc2ccc3ccccc3c2)NC(C)=O)C(=O)N[C@@H](CC(C)C)C(=O)N[C@@H](CCCCNC(C)C)C(=O)N2CCC[C@H]2C(=O)N[C@H](C)C(N)=O)cc1"
  System Tested: "Gonadotropin-releasing hormone receptor (Homo sapiens, UniProt P30968)"
  Category Label: "0 (no)"
- Compound: "CC(=O)N[C@H](Cc1ccc2ccccc2c1)C(=O)N[C@H](Cc1ccc(Cl)cc1)C(=O)N[C@H](Cc1cccnc1)C(=O)N[C@@H](CO)C(=O)N[C@@H](Cc1ccc(NC(=O)[C@@H]2CC(=O)NC(=O)N2)cc1)C(=O)N[C@H](Cc1ccc2ccccc2c1)C(=O)N[C@@H](CC(C)C)C(=O)N[C@@H](CCCCNC(C)C)C(=O)N1CCC[C@H]1C(=O)N[C@H](C)C(N)=O"
  System Tested: "Gonadotropin-releasing hormone receptor (Homo sapiens, UniProt P30968)"
  Category Label: "0 (no)"
- Compound: "CC(=O)N[C@H](Cc1ccc2ccccc2c1)C(=O)N[C@H](Cc1ccc(Cl)cc1)C(=O)N[C@H](Cc1cccnc1)C(=O)N[C@@H](CO)C(=O)N[C@@H](Cc1ccc(NC(=O)[C@@H]2CC(=O)NC(=O)N2)cc1)C(=O)N[C@H](Cc1ccc(NC(N)=O)cc1)C(=O)N[C@@H](CC(C)C)C(=O)N[C@@H](CCCCNC(C)C)C(=O)N1CCC[C@H]1C(=O)N[C@H](C)C(N)=O"
  System Tested: "Gonadotropin-releasing hormone receptor (Homo sapiens, UniProt P30968)"
  Category Label: "0 (no)"
- Compound: "CC(=O)Nc1ccc(C[C@@H](NC(=O)[C@H](Cc2ccc(NC(=O)c3cc(=O)[nH]c(=O)[nH]3)cc2)NC(=O)[C@H](CO)NC(=O)[C@@H](Cc2cccnc2)NC(=O)[C@@H](Cc2ccc(Cl)cc2)NC(=O)[C@@H](Cc2ccc3ccccc3c2)NC(C)=O)C(=O)N[C@@H](CC(C)C)C(=O)N[C@@H](CCCCNC(C)C)C(=O)N2CCC[C@H]2C(=O)N[C@H](C)C(N)=O)cc1"
  System Tested: "Gonadotropin-releasing hormone receptor (Homo sapiens, UniProt P30968)"
  Category Label: "0 (no)"
- Compound: "CC(=O)N[C@H](Cc1ccc2ccccc2c1)C(=O)N[C@H](Cc1ccc(Cl)cc1)C(=O)N[C@H](Cc1cccnc1)C(=O)N[C@@H](CO)C(=O)N[C@@H](Cc1ccc(Nc2n[nH]c(N)n2)cc1)C(=O)N[C@H](Cc1ccc(Nc2n[nH]c(N)n2)cc1)C(=O)N[C@@H](CC(C)C)C(=O)N[C@@H](CCCCNC(C)C)C(=O)N1CCC[C@H]1C(=O)N[C@H](C)C(N)=O.CC(=O)O [PRAZARELIX ACETATE] (Ac-[d2Nal][dPhe(4-Cl)][d3Pal]S[Phe(4-NH(5-NH2triazol-3-yl))][X1]L[Lys(iPr)]P[dA]-NH2)"
  System Tested: "Gonadotropin-releasing hormone receptor (Homo sapiens, UniProt P30968)"
  Category Label: "1 (yes)"
- Compound: "CC(=O)N[C@H](Cc1ccc2ccccc2c1)C(=O)N[C@H](Cc1ccc(Cl)cc1)C(=O)N[C@H](Cc1cccnc1)C(=O)N[C@@H](CO)C(=O)N[C@@H](Cc1ccc(NC(=O)[C@H]2CC(=O)NC(=O)N2)cc1)C(=O)N[C@H](Cc1ccc(CNC(N)=O)cc1)C(=O)N[C@@H](CC(C)C)C(=O)N[C@@H](CCCCNC(C)C)C(=O)N1CCC[C@H]1C(=O)N[C@H](C)C(N)=O"
  System Tested: "Gonadotropin-releasing hormone receptor (Homo sapiens, UniProt P30968)"
  Category Label: "1 (yes)"
- Compound: "CC(=O)NCc1ccc(C[C@@H](NC(=O)[C@H](Cc2ccc(NC(=O)[C@H]3CC(=O)NC(=O)N3)cc2)NC(=O)[C@H](CO)NC(=O)[C@@H](Cc2cccnc2)NC(=O)[C@@H](Cc2ccc(Cl)cc2)NC(=O)[C@@H](Cc2ccc3ccccc3c2)NC(C)=O)C(=O)N[C@@H](CC(C)C)C(=O)N[C@@H](CCCCNC(C)C)C(=O)N2CCC[C@H]2C(=O)N[C@H](C)C(N)=O)cc1"
  System Tested: "Gonadotropin-releasing hormone receptor (Homo sapiens, UniProt P30968)"
  Category Label: "1 (yes)"
- Compound: "CC(=O)Nc1ccc(C[C@H](NC(=O)[C@H](CO)NC(=O)[C@@H](Cc2cccnc2)NC(=O)[C@@H](Cc2ccc(Cl)cc2)NC(=O)[C@@H](Cc2ccc3ccccc3c2)NC(C)=O)C(=O)N[C@H](Cc2ccc(NC(C)=O)cc2)C(=O)N[C@@H](CC(C)C)C(=O)N[C@@H](CCCCNC(C)C)C(=O)N2CCC[C@H]2C(=O)N[C@H](C)C(N)=O)cc1"
  System Tested: "Gonadotropin-releasing hormone receptor (Homo sapiens, UniProt P30968)"
  Category Label: "1 (yes)"
